Values compiled from PubChem BioAssay AID651640.

# experimental-protocol: inhibitors of DENV2 cytopathic effect, primary screen, cell-based, plate reader, single concentration (AID 651640);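 note: 0% = median of neutral control wells and 100% = median of positive control wells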
# recorded-conditions: DENV2-infected cells, cytopathic effect rescue, at 9.99 µM, hits give high values
Screen size: about 350,000 compounds; about 6,000 (1.7%) were called active. About 5% were inconclusive and are not listed. The entries come from a sample that favours actives as a whole.
Quick list: CPE inhibition per entry.
readout-name: CPE inhibition (%)

>>> print(df.to_string())
                                   compound    readout_name  units_text  numeric_readout
0  O=C(OCc1ccccc1)N1CCC2CC1c1ccc(-c3ccc4c(c3)OCO4)cc12 (stereo not drawn)  CPE inhibition           %             59.5
1  COCc1cn(CC[C@H]2CC[C@@H](NC(=O)Nc3ccc(OC)cc3)[C@@H](CO)O2)nn1  CPE inhibition           %            0.762
2  COc1ccc2c3c(n(C)c2c1)[C@@H](CO)N(CC1CC1)CC31CCN(C(=O)c2cccc(F)c2)CC1  CPE inhibition           %            -5.77
3  CC1(C)CC(=O)C=C(c2ccc(Cl)c(C(F)(F)F)c2)C1  CPE inhibition           %             1.16
4  COc1ccc(S(=O)(=O)N(C)C[C@H]2OCCCC[C@@H](C)Oc3ccc(NC(=O)NC(C)C)cc3C(=O)N([C@H](C)CO)C[C@H]2C)cc1  CPE inhibition           %            -2.15
5  CCCN1C[C@@H](C)[C@@H](OC)CN(C)C(=O)c2ccc(NC(=O)CC(F)(F)F)cc2OC[C@H]1C  CPE inhibition           %             1.09
6  Cc1ccc(S(=O)(=O)N(CCc2ccccc2)c2ccc3c(c2)C2CC3CCN2C(=O)OCc2ccccc2)cc1 (stereo not drawn)  CPE inhibition           %            -3.72
7  O=C(OCc1ccccc1)N1CCC2CC1c1cc(N3CCN(S(=O)(=O)c4cc(Cl)cc(Cl)c4)CC3)ccc12 (stereo not drawn)  CPE inhibition           %            -5.76
